stated_conditions: in water, 293.15 K
reported_endpoint: solubility (mole fraction)
Note: the reply should be a number with no unit written.

# lookup: solubility (mole fraction) of "Nc1cnc(Br)cn1"
2.43e-05

* * *

stated_conditions: in acetone, 303.15 K
reported_endpoint: solubility (mole fraction)
Note: the reply should be a number with no unit written.

# lookup: solubility (mole fraction) of "Nc1cnc(Br)cn1"
0.012

* * *

stated_conditions: in water, 323.15 K
reported_endpoint: solubility (mole fraction)

# lookup: solubility (mole fraction) of "Nc1cnc(Br)cn1"
4.77e-05

* * *

stated_conditions: in water, 288.15 K
reported_endpoint: solubility (mole fraction)
Note: the reply should be a number with no unit written.

# lookup: solubility (mole fraction) of "Nc1cnc(Br)cn1"
2.18e-05
